// reported HEK-Blue activity, +100 nM BP, DF-100,000 for each item listed
EXPERIMENTAL_SYSTEM: T1, interleukin 18 binding protein (IL-18BP) (UniProt O95998 31-194); note: unit not given here
T1 sequence (looked up): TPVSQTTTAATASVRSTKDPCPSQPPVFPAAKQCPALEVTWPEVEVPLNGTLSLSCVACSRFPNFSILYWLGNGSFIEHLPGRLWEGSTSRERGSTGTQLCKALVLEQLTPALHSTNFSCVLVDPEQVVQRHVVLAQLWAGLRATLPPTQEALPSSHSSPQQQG
MEASUREMENT_PROTOCOL: cell-based or functional assay
MEASUREMENT_LABEL: HEK-Blue activity, +100 nM BP, DF-100,000

>>> result("IL-18 variant K8R, L9G, S10C, K53G, S55A, R104G (ligand) YFGKLESRGCVIRNLNDQVLFIDQGNRPLFEDMTDSDMRDNAPRTIFIISMYGDAQPRGMAVTISVKSEKISTLSSENKIISFKEMNPPDNIKDTKSDIIFFQGSVPGHDNKMQFESSSYEGYFLASEKERDLFKLILKKEDELGDRSIMFTVQNED")
0.14
>>> result("IL-18 variant K53D, S55L (ligand) YFGKLESKLSVIRNLNDQVLFIDQGNRPLFEDMTDSDMRDNAPRTIFIISMYDDLQPRGMAVTISVKSEKISTLSSENKIISFKEMNPPDNIKDTKSDIIFFQRSVPGHDNKMQFESSSYEGYFLASEKERDLFKLILKKEDELGDRSIMFTVQNED")
0.09
>>> result("IL-18 variant K53H, S55M (ligand) YFGKLESKLSVIRNLNDQVLFIDQGNRPLFEDMTDSDMRDNAPRTIFIISMYHDMQPRGMAVTISVKSEKISTLSSENKIISFKEMNPPDNIKDTKSDIIFFQRSVPGHDNKMQFESSSYEGYFLASEKERDLFKLILKKEDELGDRSIMFTVQNED")
0.09
>>> result("IL-18 variant T34L, S36V, D40A, N41S, K53G, S55W (ligand) YFGKLESKLSVIRNLNDQVLFIDQGNRPLFEDMLDVDMRASAPRTIFIISMYGDWQPRGMAVTISVKSEKISTLSSENKIISFKEMNPPDNIKDTKSDIIFFQRSVPGHDNKMQFESSSYEGYFLASEKERDLFKLILKKEDELGDRSIMFTVQNED")
0.12
>>> result("IL-18 variant K53L, S55G (ligand) YFGKLESKLSVIRNLNDQVLFIDQGNRPLFEDMTDSDMRDNAPRTIFIISMYLDGQPRGMAVTISVKSEKISTLSSENKIISFKEMNPPDNIKDTKSDIIFFQRSVPGHDNKMQFESSSYEGYFLASEKERDLFKLILKKEDELGDRSIMFTVQNED")
0.11
>>> result("IL-18 variant T34N, S36N, D40E, N41G, K53S, S55Q, R104N, H109Y (ligand) YFGKLESKLSVIRNLNDQVLFIDQGNRPLFEDMNDNDMREGAPRTIFIISMYSDQQPRGMAVTISVKSEKISTLSSENKIISFKEMNPPDNIKDTKSDIIFFQNSVPGYDNKMQFESSSYEGYFLASEKERDLFKLILKKEDELGDRSIMFTVQNED")
0.09
>>> result("IL-18 variant K53V, S55Q (ligand) YFGKLESKLSVIRNLNDQVLFIDQGNRPLFEDMTDSDMRDNAPRTIFIISMYVDQQPRGMAVTISVKSEKISTLSSENKIISFKEMNPPDNIKDTKSDIIFFQRSVPGHDNKMQFESSSYEGYFLASEKERDLFKLILKKEDELGDRSIMFTVQNED")
0.17
